assay: chemical genetic growth profiling, strain panel (AID 1159580);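 note: tested at 20 µM; growth read once vehicle control cultures reached saturation at 30 °C; lower values mean less growth of the strain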; details: S. cerevisiae deletion strains, growth OD, locus YJL115W, strain asf1, stronger effect = lower value
About 2,000 (36%) of roughly 5,500 compounds were called active. About 18% were inconclusive and are not listed. Some of the results follow.
Please note: normalized growth exactly at 1 is no. Only values below 1 get yes.

Query: Bench note: check whether CN(C)CCN(Cc1cccs1)c1ccccn1 shows normalized growth below 1
Response: no

Query: Bench note: check whether CC1(C)S[C@@H]2[C@H](NC(=O)[C@H](N)c3ccccc3)C(=O)N2[C@H]1C(=O)O shows normalized growth below 1
Response: yes

Query: Bench note: check whether COc1ccc(-c2coc3cc(O)ccc3c2=O)c(O)c1O shows normalized growth below 1
Response: yes

Query: Bench note: check whether C=C[C@@](C)(O)CCC1C(=C)C[C@H](OC(C)=O)C2C(C)(C)CCCC12C (some centres not stated) shows normalized growth below 1
Response: no

Query: Bench note: check whether CCn1cc(C(=O)O)c(=O)c2cc(F)c(N3CCNC(C)C3)c(F)c21 (configuration not stated) shows normalized growth below 1
Response: yes

Query: Bench note: check whether OCC(O)CN1CCN(c2ccccc2)CC1 (configuration not stated) shows normalized growth below 1
Response: yes

Query: Bench note: check whether C/C=C(\C)C(=O)O[C@H]1C[C@@H](OC(C)=O)[C@@]2(C(=O)OC)CO[C@@H]3C2[C@]12CO[C@](O)(C(=O)OC)[C@H]2[C@](C)(C12O[C@@]1(C)[C@H]1C[C@@H]2OC2OC=C[C@@]21O)[C@@H]3O (some centres not stated) shows normalized growth below 1
Response: yes

Query: Bench note: check whether COc1ccc2c(c1)OC/C(=C\c1ccc(OC)c(O)c1)C2=O shows normalized growth below 1
Response: yes

Query: Bench note: check whether CCCCCCCCCCC[C@@H](C[C@H]1OC(=O)[C@H]1CCCCCC)OC(=O)[C@@H](CC(C)C)NC=O shows normalized growth below 1
Response: no

Query: Bench note: check whether COc1cc([C@@H]2c3cc4c(cc3[C@@H](O)C3COC(=O)C32)OCO4)cc(OC)c1O (some centres not stated) shows normalized growth below 1
Response: yes

Query: Bench note: check whether NCCCS(=O)(=O)O shows normalized growth below 1
Response: no

Query: Bench note: check whether COC(=O)C[C@H]1C2(C)CC34OC5(C)O[C@@]6([C@H](OC)C(OC(=O)C(C)C)[C@]7(C)C(/C(=C(/OC)C(C)C)C(=O)O[C@H]7c7ccoc7)[C@@]6(O5)[C@H](OC)[C@@]3(OC)C2OC(C)=O)[C@]14C (some centres not stated) shows normalized growth below 1
Response: yes

Query: Bench note: check whether COc1c(N2CCNC(C)C2)c(F)cc2c(=O)c(C(=O)O)cn(C3CC3)c12 (configuration not stated) shows normalized growth below 1
Response: yes

Query: Bench note: check whether CCn1cc(C(=O)O)c(=O)c2cc(F)c(N3CCNCC3)nc21 shows normalized growth below 1
Response: yes

Query: Bench note: check whether NCCS(=O)(=O)O shows normalized growth below 1
Response: yes

Data credit: PubChem BioAssay AID1159580
